All figures here come from ChEMBL document CHEMBL3507680.

Give cytotoxicity at 70.5 h for every item shown.
# experimental-details: Human HepG2 cell viability assay in 384 well format
# Type: toxicity, cell-based
# Parameters: dose 125 nL, time 70.5 hour; concentration not given beside the values
# measurement-conditions: HepG2 cells, read-out: Inhibition
Numbers only, in %.

Here is how some compounds turned out for cytotoxicity at 70.5 h.
> print(dat)
                                   compound  units.of.measure  reported.result
1  Cc1ccc([C@@H]2CN(S(=O)(=O)N3CCC(C)CC3)C[C@H]2N(C)C)cc1                 %            -12.1
2  CC(C)(C)c1cccc(OCC(=O)NS(=O)(=O)c2cccnc2)c1                 %             21.7
3  Cc1ccc(N2CCCC(c3[nH]ncc3-c3ccccc3)C2)nn1 (stereo not given)                 %            -8.56

Give me cytotoxicity at 70.5 h for each of these compounds, listed below.
1. COCCn1ccc2ccc(NC(=O)NCc3noc(C)n3)cc21
2. COCCN1CCC2(COCCN(Cc3ccc4c(c3)OCO4)C2)C1 (stereo not given)
3. Cc1cccc(-c2noc(Cn3nc(C(N)=O)ccc3=O)n2)c1
4. O=C(NCC(O)c1cccc(F)c1)c1cccnc1O (stereo not given)
5. CSCC1CCCN1CCc1ccncc1 (stereo not given)
6. Cc1cn2c(n1)CCC(NC(=O)c1cc(Br)cn1C)C2 (stereo not given)
7. CCN(CC)C1COc2ccc(Br)cc2C1=O (stereo not given)

1: 2.1; 2: -9.54; 3: -4.08; 4: -5.45; 5: 27.5; 6: 1.7; 7: -5.6

# return cytotoxicity at 70.5 h for each item in the list
1. Cc1nc(N)cc(C2CCN2CCOc2ccccc2)n1 (stereo not given)
2. c1nc2c(c(C3CC3)n1)CCN(CC1CCOC1)CC2 (stereo not given)
3. Cc1[nH]nc(CCC(=O)NCC2COc3ccccc3C2)c1C (stereo not given)
4. Cn1ccc(C2CCCCCN2C(=O)c2cccnc2)n1 (stereo not given)
5. COc1ccc(C(=O)N2CCCC2c2ccco2)cc1OC (stereo not given)
6. Cc1noc(-c2cccnc2N2CCN(c3cnn(C)c3)CC2)n1
7. COc1cc(CNCc2ccnc(N3CCCC3)c2)cc(OC)c1

1: -6.55; 2: -13.3; 3: -6.82; 4: -2.46; 5: -12.1; 6: -12; 7: 1.37

---

Provide the reported cytotoxicity at 70.5 h of each item.
# experimental-details: Human HepG2 cell viability assay in 384 well format
# Format: toxicity, cell-based
# Parameters: dose 125 nL, time 70.5 hour; concentration not given beside the values
# measurement-conditions: HepG2 cells, read-out: Inhibition
One number for each entry, in %.

Some solved entries appear below for comparison.
> print(dat)
                                   compound                  metric  reported.result
1            CCCc1nc(CNC(=O)Cc2cc(C)no2)cs1  cytotoxicity at 70.5 h             19.8
2      Cc1nn(C)c2c(NCc3ccccn3)nc(C(C)C)nc12  cytotoxicity at 70.5 h             20.7
3             CCc1cnc(N2CCN(Cc3ccon3)CC2)s1  cytotoxicity at 70.5 h            -6.28
4  O=C(c1ccccn1)N1C[C@H]2CCC[C@@]2(COCC2CCOCC2)C1  cytotoxicity at 70.5 h            -10.8
5             CCNC(=O)c1cnc(Cc2ccc(F)cc2)s1  cytotoxicity at 70.5 h            -6.25

Give cytotoxicity at 70.5 h for each listed item.
1. Cc1c(O)oc(-c2ccc(Br)cc2)nc1=O
2. CC(C)N(C)S(=O)(=O)N(C)Cc1cnn(C)c1
3. CCc1nc(C2CCCN2CC(=O)N2CCc3ccccc32)no1 (centres undefined)

53.6
-3.87
-5.32

Value sought for every listed compound: cytotoxicity at 70.5 h.
1. Cc1nn(C)c2ncc(S(=O)(=O)N3CCCC(C)CC3)cc12 (centres undefined)
2. CCCS(=O)(=O)N1CCC(NC(=O)c2cc3ccccc3s2)CC1
3. CCc1nnc(SCc2cc(=O)n3c4c(sc3n2)CCCC4)[nH]1

[-8.46, -6.56, -1.82]

Items follow; give cytotoxicity at 70.5 h for each.
1. Cc1ccc(-c2noc([C@H](N)CC(C)C)n2)nn1
2. CN(C)C(=O)CCCNc1ncc2c(n1)CCN2c1ccccc1
3. CC(C)c1nc(C2CCCN(C(=O)Cn3ccccc3=O)C2)no1 (centres undefined)
4. COc1ccc(CC(=O)N2CCN(c3nccn3C)CC2)cc1
5. CSc1ncnc(NCc2ccco2)c1C#N
6. CC(C)(C)n1cc(NCc2cscn2)cn1

[7.92, -7.97, -1.03, -1.27, -12.3, -6.29]
